- Test system: CCRF-CEM leukemia
- ASSAY_REMARKS: NCI-60 one-dose screen, 48 h (100 = growth as untreated, 0 = no growth, -100 = all killed)
- CONDITION_SUMMARY: 10 µM unless noted
This is part of a sample that, as a whole, favours compounds with a hit. Of some 83,000 tested, about 20% had one in any assay.
MEASUREMENT_NAME: growth (%)
Answers are plain numbers, in %.

# SMILES_REPRESENTATION, growth, %
records = [
    ("CNC(=S)N/N=C/CSC/C=N/NC(=S)NC", 20.4),
    ("CC(C)n1cc2c(N)ncnc2n1", 109),
    ("Cc1cc2cc3cc(C)c(N(C)C)cc3nc2cc1N(C)C", 17.3),
]

Hi! Can you tell me growth for each of these compounds?
1. O=c1c2cccc3c(Nc4c(F)cccc4F)ccc(c32)c2nc3ccccc3n12
2. CC(=O)C1=C(O)C=C2Oc3c(C(=O)/C=C/c4cc(C(F)(F)F)cc(C(F)(F)F)c4)c(O)c(C)c(O)c3[C@]2(C)C1=O
3. C/C(=C(/c1ccc(O)cc1)c1ccc(Cl)cc1)c1ccccc1
4. O=c1c2cccc3c(NC4CCCCC4)ccc(c32)c2nc3ccccc3n12

1: 72.5; 2: -18.1; 3: -61.2; 4: 65.4
